# Target desc: T1, apical domain of human CD71 (human, UniProt P02786 189-383, limits assumed)
# T1 construct: domain: apical domain; Screen 4 panned on human apical domains, the ELISA text says only 'apical domain'
# T1 sequence (P02786 189-383 limits assumed): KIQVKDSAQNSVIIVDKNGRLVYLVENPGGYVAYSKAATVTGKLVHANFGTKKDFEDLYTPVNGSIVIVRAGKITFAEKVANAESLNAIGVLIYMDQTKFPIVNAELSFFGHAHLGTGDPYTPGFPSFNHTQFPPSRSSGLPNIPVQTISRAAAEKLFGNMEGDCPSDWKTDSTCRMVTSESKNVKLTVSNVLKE
# Assay text: primary ELISA; note: test concentration or dose not given here
Readout: RLU
Answer as a quantity: numeral, then unit.

Query: RLU; subject: CD71-binding FN3 domain of SEQ ID NO: 489 (designed binder) MLAPKNLVVSRVTEDSARLSWTAPDAAFDSFFIGYLEPQPPGEAISLLVPGSERSYDLTGLKPGTEYNVTIQGVKGGFPSSPLLAGFTT
4.06e+06 RLU

Query: RLU; subject: CD71-binding FN3 domain of SEQ ID NO: 503 (designed binder) MLPAPKNLVVSRVTEDSARLSWTAPDAAFDSFEISYFETSWHGEAIVLTVLGSERSYDLTGLKPGTEYRVYIGGVKGGSWSQPLSAIFTT
2.26e+06 RLU

Query: RLU; subject: CD71-binding FN3 domain of SEQ ID NO: 466 (designed binder) MLPAPKNLVVSRVTEDSARLSWTAPDAAFDSFYIAYAEPRPDGEAIWLLVPGSERSYDLTGLKPGTEYSVLIHGVKGGLLSSPLSADFTT
4.3e+06 RLU

Query: RLU; subject: CD71-binding FN3 domain of SEQ ID NO: 495 (designed binder) MLPAPKNLVVSRVTEDSARLSWTAPDAAFDSFFINYREDKWIGEAIVLTVPGSERSYDLTGLKPGTEYSVPIDGVKGGAASPPLSAIFTT
4.03e+06 RLU

Query: RLU; subject: CD71-binding FN3 domain of SEQ ID NO: 481 (designed binder) MLPAPKNLVVSRVTEDSARLSWTAPDAAFDSFFIGYLEPQPPGEAITLYVPGSERSYDMTGLKPGTEYNVTIQGVKGGFPSLPLQAHFTT
3.65e+06 RLU

Query: RLU; subject: CD71-binding FN3 domain of SEQ ID NO: 527 (designed binder) MLPAPKNLVVSRVTEDSARLSWTAPDAAFDSFFIGYLEPQPPGEAIHLYVPGSERSYDLTGLKPGTEYNVTIQGVKGGFPSEPLIANFTT
6.4e+06 RLU

Query: RLU; subject: CD71-binding FN3 domain of SEQ ID NO: 505 (designed binder) MLPAPKNLVVSRVTEDSARLSWTALDAAFDSFFIGYLEPQPPGEAIHLFVPGSERSYDLTGLKPGTEYNVTIQGVKGGFPSEPLIANFTT
5.64e+06 RLU
